- Test system: AIK-T8
- ASSAY NOTES: Ability to inhibit […] activity at 2.5 uM and 200 ng/ml PSC833 in a mitoxantrone accumulation assay on T8 human cell line
- Assay type: ADME, cell-based
- APPLIED CONDITIONS: aik-t8, 2.5 µM
We'd kindly ask you to apply these Fluorescence classes: label 0: < 300%; label 1: ≥ 300% and < 400%; label 2: ≥ 400%

{"COMPOUND": "CCC1c2[nH]c3ccccc3c2C[C@H]2C(=O)NC(CCCCNC(=O)OC(C)(C)C)C(=O)N12 (some centres undefined)", "CLASS": "label 1"}
{"COMPOUND": "O=C1NC(Cc2c[nH]c3ccccc23)C(=O)N2C(c3ccccc3)c3[nH]c4ccccc4c3C[C@@H]12 (some centres undefined)", "CLASS": "label 1"}
{"COMPOUND": "O=C1NC(N2CCCC2)C(=O)N2C(C3CCCCC3)c3[nH]c4ccccc4c3C[C@@H]12 (some centres undefined)", "CLASS": "label 1"}
{"COMPOUND": "CC(C)C1c2[nH]c3ccccc3c2C[C@H]2C(=O)NC(N3CCCC3)C(=O)N12 (some centres undefined)", "CLASS": "label 0"}
{"COMPOUND": "CC(C)C1c2[nH]c3ccccc3c2C[C@H]2C(=O)NC(Cc3ccccc3)C(=O)N12 (some centres undefined)", "CLASS": "label 1"}
{"COMPOUND": "CC(C)(C)OC(=O)CCC1NC(=O)[C@@H]2Cc3c([nH]c4ccccc34)C(c3ccccc3)N2C1=O (some centres undefined)", "CLASS": "label 1"}
{"COMPOUND": "CC(C)CC1c2[nH]c3ccccc3c2C[C@H]2C(=O)NC(COC(C)(C)C)C(=O)N12 (some centres undefined)", "CLASS": "label 2"}
{"COMPOUND": "CC(C)C1c2[nH]c3ccccc3c2C[C@H]2C(=O)NC(CCCCNC(=O)OC(C)(C)C)C(=O)N12 (some centres undefined)", "CLASS": "label 2"}
{"COMPOUND": "CC(C)CC1c2[nH]c3ccccc3c2C[C@H]2C(=O)NC(Cc3c[nH]c4ccccc34)C(=O)N12 (some centres undefined)", "CLASS": "label 2"}
{"COMPOUND": "CC(C)(C)OC(=O)NCCCCC1NC(=O)[C@@H]2Cc3c([nH]c4ccccc34)C(C3CCCCC3)N2C1=O (some centres undefined)", "CLASS": "label 2"}
{"COMPOUND": "CC(C)C1c2[nH]c3ccccc3c2C[C@H]2C(=O)NC(CCC(=O)OC(C)(C)C)C(=O)N12 (some centres undefined)", "CLASS": "label 1"}
{"COMPOUND": "CCC1c2[nH]c3ccccc3c2C[C@H]2C(=O)NC(N3CCCC3)C(=O)N12 (some centres undefined)", "CLASS": "label 0"}
{"COMPOUND": "CC1NC(=O)[C@@H]2Cc3c([nH]c4ccccc34)C(C3CCCCC3)N2C1=O (some centres undefined)", "CLASS": "label 0"}
{"COMPOUND": "CC(C)C1c2[nH]c3ccccc3c2C[C@H]2C(=O)NC(Cc3c[nH]c4ccccc34)C(=O)N12 (some centres undefined)", "CLASS": "label 1"}
{"COMPOUND": "CCCCCC1c2[nH]c3ccccc3c2C[C@H]2C(=O)NC(C)C(=O)N12 (some centres undefined)", "CLASS": "label 2"}
{"COMPOUND": "CC(C)CC1c2[nH]c3ccccc3c2C[C@H]2C(=O)NC(CCCCNC(=O)OC(C)(C)C)C(=O)N12 (some centres undefined)", "CLASS": "label 2"}
{"COMPOUND": "CC(C)C1c2[nH]c3ccccc3c2C[C@H]2C(=O)NC(COC(C)(C)C)C(=O)N12 (some centres undefined)", "CLASS": "label 1"}
{"COMPOUND": "CC1NC(=O)[C@@H]2Cc3c([nH]c4ccccc34)C(c3ccccc3)N2C1=O (some centres undefined)", "CLASS": "label 0"}
{"COMPOUND": "CC(C)(C)OCC1NC(=O)[C@@H]2Cc3c([nH]c4ccccc34)C(C3CCCCC3)N2C1=O (some centres undefined)", "CLASS": "label 2"}
{"COMPOUND": "CCCCCC1c2[nH]c3ccccc3c2C[C@H]2C(=O)NC(N3CCCC3)C(=O)N12 (some centres undefined)", "CLASS": "label 1"}
{"COMPOUND": "CCCCCC1c2[nH]c3ccccc3c2C[C@H]2C(=O)NC(COC(C)(C)C)C(=O)N12 (some centres undefined)", "CLASS": "label 2"}
{"COMPOUND": "CCC1c2[nH]c3ccccc3c2C[C@H]2C(=O)NC(Cc3ccccc3)C(=O)N12 (some centres undefined)", "CLASS": "label 0"}
{"COMPOUND": "CC1NC(=O)[C@@H]2Cc3c([nH]c4ccccc34)C(C(C)C)N2C1=O (some centres undefined)", "CLASS": "label 0"}
{"COMPOUND": "CC(C)(C)OCC1NC(=O)[C@@H]2Cc3c([nH]c4ccccc34)C(c3ccccc3)N2C1=O (some centres undefined)", "CLASS": "label 1"}
{"COMPOUND": "CCC1c2[nH]c3ccccc3c2C[C@H]2C(=O)NC(COC(C)(C)C)C(=O)N12 (some centres undefined)", "CLASS": "label 0"}
{"COMPOUND": "CC(C)CC1c2[nH]c3ccccc3c2C[C@H]2C(=O)NC(C)C(=O)N12 (some centres undefined)", "CLASS": "label 1"}
{"COMPOUND": "O=C1NC(Cc2ccccc2)C(=O)N2C(c3ccccc3)c3[nH]c4ccccc4c3C[C@@H]12 (some centres undefined)", "CLASS": "label 1"}
{"COMPOUND": "CCCCCC1c2[nH]c3ccccc3c2C[C@H]2C(=O)NC(CCC(=O)OC(C)(C)C)C(=O)N12 (some centres undefined)", "CLASS": "label 2"}
{"COMPOUND": "CCCCCC1c2[nH]c3ccccc3c2C[C@H]2C(=O)NC(Cc3ccccc3)C(=O)N12 (some centres undefined)", "CLASS": "label 2"}
{"COMPOUND": "CC(C)CC1c2[nH]c3ccccc3c2C[C@H]2C(=O)NC(N3CCCC3)C(=O)N12 (some centres undefined)", "CLASS": "label 0"}
{"COMPOUND": "CCCCCC1c2[nH]c3ccccc3c2C[C@H]2C(=O)NC(CCCCNC(=O)OC(C)(C)C)C(=O)N12 (some centres undefined)", "CLASS": "label 2"}
{"COMPOUND": "CC(C)(C)OC(=O)CCC1NC(=O)[C@@H]2Cc3c([nH]c4ccccc34)C(C3CCCCC3)N2C1=O (some centres undefined)", "CLASS": "label 2"}
{"COMPOUND": "CCC1c2[nH]c3ccccc3c2C[C@H]2C(=O)NC(Cc3c[nH]c4ccccc34)C(=O)N12 (some centres undefined)", "CLASS": "label 1"}
